# MIC values compiled below
System: P. aeruginosa (ΔmexAB-oprM)
Protocol Summary: microbe, parasite or virus in culture
Type: cell-based
Setup Conditions: Pseudomonas aeruginosa, read-out: MIC P. aeruginosa ΔmexAB-OprM

Guide cases for MIC, answers given:
[
  {
    "Compound": "CC[C@H]1CN(CC)C(=O)C(=O)N1C(=O)NC(C(=O)N[C@H]1Cc2cccc(C(=O)O)c2OB1O)c1ncc(O)cc1F (stereo partly shown)",
    "Target Of Assay": "P. aeruginosa (ΔmexAB-oprM)",
    "Readout Label": "MIC",
    "Reported Measurement": "32 to 64 µg/mL"
  },
  {
    "Compound": "NCCCN1CCN(C(=O)N[C@@H](C(=O)N[C@H]2Cc3ccc(F)c(C(=O)O)c3OB2O)c2ccc(O)c(O)c2Cl)C(=O)C1=O",
    "Target Of Assay": "P. aeruginosa (ΔmexAB-oprM)",
    "Readout Label": "MIC",
    "Reported Measurement": "< 0.25 µg/mL"
  },
  {
    "Compound": "CNCCN1CCN(C(=O)N[C@@H](C(=O)N[C@H]2Cc3ccc(F)c(C(=O)O)c3OB2O)c2ccc(O)c(O)c2Cl)C(=O)C1=O",
    "Target Of Assay": "P. aeruginosa (ΔmexAB-oprM)",
    "Readout Label": "MIC",
    "Reported Measurement": "< 0.25 µg/mL"
  },
  {
    "Compound": "CCN1CCN(C(=O)NC(C(=O)N[C@H]2Cc3ccc(F)c(C(=O)O)c3OB2O)c2cc(O)c(O)cc2F)C(=O)C1=O (stereo partly shown)",
    "Target Of Assay": "P. aeruginosa (ΔmexAB-oprM)",
    "Readout Label": "MIC",
    "Reported Measurement": "0.5 to 1 µg/mL"
  }
]

Query: MIC; subject: O=C(O)c1cccc2c1OB(O)[C@@H](NC(=O)C(NC(=O)N1CCN(CCF)C(=O)C1=O)c1ccc(S(=O)(=O)NCCO)cc1)C2 (stereo partly shown)
8 to 16 µg/mL

Lookup CCN1CCN(C(=O)NC(C(=O)N[C@H]2Cc3cccc(C(=O)O)c3OB2O)c2ccc(S(N)(=O)=O)cc2F)C(=O)C1=O (stereo partly shown)
8 to 16 µg/mL

Please give the result for CCN1CCN(C(=O)NC(C(=O)N[C@H]2Cc3cccc(C(=O)O)c3OB2O)c2ncc(O)cc2Cl)C(=O)C1=O (stereo partly shown) too.
32 to 64 µg/mL

Try the compound CCN1C[C@H](CCN)N(C(=O)NC(C(=O)N[C@H]2Cc3ccc(F)c(C(=O)O)c3OB2O)c2ccc(O)c(O)c2Cl)C(=O)C1=O (stereo partly shown)
< 0.25 µg/mL

Same question for NS(=O)(=O)c1ccc([C@@H](NC(=O)N2CCN(CCF)C(=O)C2=O)C(=O)N[C@H]2Cc3cccc(C(=O)O)c3OB2O)cc1O please.
8 to 16 µg/mL

Same lookup for CCNC(=O)NCCN1CCN(C(=O)NC(C(=O)N[C@H]2Cc3cccc(C(=O)O)c3OB2O)c2ccc(O)c(O)c2Cl)C(=O)C1=O (stereo partly shown) , please.
< 0.25 µg/mL

Try this compound too: CC(=O)NCCN1CCN(C(=O)NC(C(=O)N[C@H]2Cc3cccc(C(=O)O)c3OB2O)c2ccc(O)c(O)c2Cl)C(=O)C1=O (stereo partly shown)
< 0.25 µg/mL

Could you do the same for O=C(O)CN1CCN(C(=O)NC(C(=O)N[C@H]2Cc3cccc(C(=O)O)c3OB2O)c2ccc(O)c(O)c2Cl)C(=O)C1=O (stereo partly shown) , please?
< 0.25 µg/mL

// repeat for CCN1CCN(C(=O)NC(C(=O)N[C@H]2Cc3cccc(C(=O)O)c3OB2O)c2ccc(S(N)(=O)=O)c(F)c2)C(=O)C1=O (stereo partly shown) and report
2 to 4 µg/mL
